# EXPERIMENT: Toxicity liver stage against HepG2, at 10uM
# Format: cell-based
# Parameters: test concentration 10 uM, cell line HepG2-A16-CD81EGFP
# EXPERIMENTAL SETUP: human, HepG2-A16-CD81EGFP cells; read-out: INHIBITION
Below, each entry is listed with its recorded cytotoxicity at 10 µM.
Please respond with the number in % and leave the unit unwritten.

Previously resolved entries follow.
COMPOUND: Cc1nnc(CN2CCCC2c2ccsc2)o1 (centres undefined)
PROPERTY: cytotoxicity at 10 µM
EXPERIMENTAL RESULT: 3.22
--
COMPOUND: O=C(Cc1ccc2c(c1)OCCO2)N1CCCC(n2cncn2)C1 (centres undefined)
PROPERTY: cytotoxicity at 10 µM
EXPERIMENTAL RESULT: -7.85
--
COMPOUND: CCc1noc(C(C)N2CCC(NS(=O)(=O)c3ccccc3)CC2)n1 (centres undefined)
PROPERTY: cytotoxicity at 10 µM
EXPERIMENTAL RESULT: 7.87
--
COMPOUND: O=C(NCc1nn(-c2ccccc2)c2c1CCC2)N1CCCC(O)C1 (centres undefined)
PROPERTY: cytotoxicity at 10 µM
EXPERIMENTAL RESULT: -10.2
--
COMPOUND: Cc1nc2c(c(Nc3ccccn3)n1)CN(S(C)(=O)=O)CC2
PROPERTY: cytotoxicity at 10 µM
EXPERIMENTAL RESULT: 11.1

Field cytotoxicity at 10 µM (entry `CC(C)(C)CN1Cc2cc3c(cc2NCCC1=O)OCO3` ) reads -84.3

Query O=C(C1CN(c2ncc(F)cn2)CC12CCOCC2)N1CCOCC1 (centres undefined) yields cytotoxicity at 10 µM of 13.6

According to the records, this compound O=C(CCSc1ccc2c(c1)OCCO2)NCC1CCS(=O)(=O)C1 (centres undefined) displays cytotoxicity at 10 µM of -4.01

Entry `COC(=O)c1ccc(Cn2cccc(C(F)(F)F)c2=O)s1` ; cytotoxicity at 10 µM = -8.03

Recorded result, CNC(=O)C1CN(C)CCN1c1nc(C)cc(C)n1 (centres undefined) , cytotoxicity at 10 µM: 15.3

cytotoxicity at 10 µM in this record for `N#CCCNC(=O)CN1CC(n2cccn2)C1` : -7.29

cytotoxicity at 10 µM measured on `C[C@H](O)CNC(=O)c1cnc(-c2ccccc2)nc1O` = -17.8

cytotoxicity at 10 µM recorded for this compound, COc1ccc(C)cc1S(=O)(=O)NCCC(O)c1ccccc1 (centres undefined) , is 0.197

Looking up `CCN(Cc1ccco1)C(=O)C1=NN(c2ccccc2)C(=O)CN1` , I see its cytotoxicity at 10 µM listed as 6.35

---

# EXPERIMENT: Toxicity liver stage against HepG2, at 10uM
# Type: cell-based
# Design: test concentration 10 uM, cell line HepG2-A16-CD81EGFP
# EXPERIMENTAL SETUP: human, HepG2-A16-CD81EGFP cells; read-out: INHIBITION
The following compounds are shown together with reported cytotoxicity at 10 µM values.
Write the value in % as a bare number.

Worked cases, cytotoxicity at 10 µM given:
COMPOUND: NC(=O)C1CCN(CCCNC(=O)Nc2nccs2)CC1
U: %
cytotoxicity at 10 µM: -0.287
--
COMPOUND: O=C(N1CCOCC1)N1CCCC1c1nc(-c2ccccn2)no1 (stereo not drawn)
U: %
cytotoxicity at 10 µM: 10.7
--
COMPOUND: O=C(Nc1ccccc1OCc1ccccn1)NC1CCOCC1
U: %
cytotoxicity at 10 µM: 6.78
--
COMPOUND: CCC(C)NS(=O)(=O)Cc1cccc(NC(=O)c2cc[nH]c2C)c1 (stereo not drawn)
U: %
cytotoxicity at 10 µM: 3.77
--
COMPOUND: Oc1cc(CCC2CCCCN2)cc(-c2cccnc2)c1 (stereo not drawn)
U: %
cytotoxicity at 10 µM: 4.11

Please examine the following record next.
Query Cc1cc(C)n(CC2CCCN2C(=O)c2ccc3c(c2)OCCO3)n1 (stereo not drawn) yields cytotoxicity at 10 µM of 5.43
